# Target desc: T1, human melanocyte stimulating hormone receptor (MSH receptor), polypeptide of SEQ ID NO:2 (human, UniProt Q01726 1-317)
# T1 construct: also called 11D cDNA product; expressed MSH receptor
# T1 sequence: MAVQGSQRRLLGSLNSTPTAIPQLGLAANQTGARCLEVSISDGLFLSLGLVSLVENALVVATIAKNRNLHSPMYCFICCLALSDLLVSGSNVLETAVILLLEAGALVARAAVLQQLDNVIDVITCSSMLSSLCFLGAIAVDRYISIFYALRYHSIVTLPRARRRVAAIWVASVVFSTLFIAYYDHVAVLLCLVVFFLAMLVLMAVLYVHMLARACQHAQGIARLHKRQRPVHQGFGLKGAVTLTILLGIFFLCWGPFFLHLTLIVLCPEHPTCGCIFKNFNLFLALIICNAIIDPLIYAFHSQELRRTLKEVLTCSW
# Experimental protocol: competition with 125I-NDP-MSH on pE-11D transfected COS-7 cells; Cheng-Prusoff from IC50
Property: Ki
Report as: number unit

Fill in Ki for each of the 3 binders listed.
1. MEHFRWG (peptide, UniProt P01189 141-147, looked up, domain: ACTH (4-10); Bought from Saxon Biochemicals GmbH) [ACTH (4-10)]
2. DEGPYRMEHFRWGSPPKD (peptide, UniProt P01189 217-234, looked up, domain: β-MSH; Bought from Saxon Biochemicals GmbH; also called beta-melanocyte stimulating hormone) [β-MSH]
3. SYSMEHFRWGKPVGKKRRPVKVYPNGAEDESAEAFPLEF (peptide, UniProt P01189 138-176, looked up, domain: ACTH (1-39); Bought from Saxon Biochemicals GmbH; also called adrenocorticotropic hormone (1-39)) [ACTH (1-39)]

["22.4 nM", "0.449 nM", "0.17 nM"]
